Target: CDK6/Cyclin D3 (Homo sapiens, UniProt Q00534)
Sequence (Q00534 whole entry): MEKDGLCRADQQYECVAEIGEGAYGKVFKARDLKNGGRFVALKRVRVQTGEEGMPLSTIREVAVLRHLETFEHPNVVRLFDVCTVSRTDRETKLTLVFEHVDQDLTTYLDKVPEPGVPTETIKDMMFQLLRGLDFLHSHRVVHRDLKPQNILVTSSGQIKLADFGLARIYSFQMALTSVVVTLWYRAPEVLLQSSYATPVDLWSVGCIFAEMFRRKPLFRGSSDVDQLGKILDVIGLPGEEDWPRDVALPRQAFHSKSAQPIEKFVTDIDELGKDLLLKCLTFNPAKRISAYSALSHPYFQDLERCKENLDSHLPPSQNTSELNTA
Sequence (P30281 whole entry partner): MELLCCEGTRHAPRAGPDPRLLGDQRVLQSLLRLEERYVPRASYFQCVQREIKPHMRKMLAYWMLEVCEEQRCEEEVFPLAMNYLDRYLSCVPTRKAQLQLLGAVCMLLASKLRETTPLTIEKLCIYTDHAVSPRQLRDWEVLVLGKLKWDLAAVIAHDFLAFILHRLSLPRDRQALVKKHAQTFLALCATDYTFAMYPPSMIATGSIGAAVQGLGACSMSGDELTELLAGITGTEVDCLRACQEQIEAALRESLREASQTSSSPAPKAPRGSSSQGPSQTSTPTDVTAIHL
Assay: CDK6/Cyclin D3 kinase assay (Nanosyn, Caliper microfluidic)
Assay type: biochemical
Conditions: 12-point dose-response, ATP at Km (300 μM), 3 hr
Labelling: IC50 reported below 100 nM becomes Fulfilled; at or above becomes Not fulfilled.

Before answering, review these 3 worked examples.
>>> label_value("O=C1NCC2(CCCCC2)n2c1cc1cnc(N[C@@H]3C[C@@H](O)CNC3=O)nc12")
"Not fulfilled"
>>> label_value("C[C@H]1CC[C@@H](Nc2ncc3cc4n(c3n2)C2(CCCCC2)CN=C4)CC1")
"Not fulfilled"
>>> label_value("O=C1NCC2(CCCCC2)n2c1cc1cnc(N[C@H]3CCCN[C@@H]3c3ccccc3)nc12")
"Not fulfilled"

Kindly consider the entry below.
Lookup: Consider the compound CN1CCN([C@H]2CC[C@@H](Nc3ncc4cc5n(c4n3)C3(CCCCC3)CNC5=S)CC2)CC1 . Is its IC50 strictly less than 100 nM?
Found: Fulfilled

* * *

Biological target: CDK9/Cyclin T (Homo sapiens, UniProt P50750)
Sequence (P50750 whole entry): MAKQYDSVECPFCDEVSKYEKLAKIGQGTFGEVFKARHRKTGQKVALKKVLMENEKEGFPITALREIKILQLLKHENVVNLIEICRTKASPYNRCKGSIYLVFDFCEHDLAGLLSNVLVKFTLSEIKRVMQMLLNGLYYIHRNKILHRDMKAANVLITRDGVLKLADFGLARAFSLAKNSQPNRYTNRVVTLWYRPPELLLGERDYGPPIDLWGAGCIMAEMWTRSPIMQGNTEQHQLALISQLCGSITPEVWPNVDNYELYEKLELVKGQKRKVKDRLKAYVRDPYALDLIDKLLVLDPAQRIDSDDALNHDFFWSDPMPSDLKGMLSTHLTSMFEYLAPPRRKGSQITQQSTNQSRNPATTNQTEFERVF
Sequence (O60563 whole entry partner): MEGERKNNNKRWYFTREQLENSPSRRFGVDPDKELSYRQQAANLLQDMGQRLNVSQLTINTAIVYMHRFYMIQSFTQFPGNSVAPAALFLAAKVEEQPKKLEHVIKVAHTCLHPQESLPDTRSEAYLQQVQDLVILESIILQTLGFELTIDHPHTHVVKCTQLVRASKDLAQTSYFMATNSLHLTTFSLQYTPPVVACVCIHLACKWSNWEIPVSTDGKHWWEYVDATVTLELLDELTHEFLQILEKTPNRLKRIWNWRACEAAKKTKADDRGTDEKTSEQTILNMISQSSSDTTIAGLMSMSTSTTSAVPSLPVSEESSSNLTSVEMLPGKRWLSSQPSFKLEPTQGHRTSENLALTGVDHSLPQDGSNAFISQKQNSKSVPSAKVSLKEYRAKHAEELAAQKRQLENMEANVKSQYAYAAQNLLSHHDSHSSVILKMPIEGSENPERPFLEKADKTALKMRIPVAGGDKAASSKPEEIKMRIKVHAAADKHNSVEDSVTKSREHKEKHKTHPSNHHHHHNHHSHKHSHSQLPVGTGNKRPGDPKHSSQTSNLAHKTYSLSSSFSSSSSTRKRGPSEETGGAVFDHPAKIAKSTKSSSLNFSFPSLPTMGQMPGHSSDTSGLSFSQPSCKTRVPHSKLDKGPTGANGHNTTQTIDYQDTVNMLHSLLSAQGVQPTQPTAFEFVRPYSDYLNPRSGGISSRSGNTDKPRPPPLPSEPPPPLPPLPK
Assay: CDK9/Cyclin T kinase assay (Nanosyn, Caliper microfluidic)
Assay type: biochemical
Conditions: 12-point dose-response, ATP at Km (10 μM), 17 hr; Table 5
Give IC50 for every item shown.
One number for each entry, in nM.

// known answers, use as guide
>>> observed_value("O=C(C[C@@H]1CCCN1)Nc1ncc2cc3n(c2n1)C1(CCCCC1)CNC3=O [Compound 34]")
190
>>> observed_value("O=C1NCC2(CCCCC2)n2c1cc1cnc(NC(=O)[C@@H]3CCCNC3)nc12 [Compound 11]")
5.5
>>> observed_value("C1=NCC2(CCCCC2)n2c1cc1cnc(NC3CCOCC3)nc12 [Compound 52]")
58

// moving on: another record for IC50
Lookup: Return reported IC50; argument: O=C1NCC2(CCCCC2)n2c1cc1cnc(N[C@H]3CC[C@H](NCc4cccnc4)CC3)nc12 [Compound 21]
Found: 2.1

* * *

Target: CDK9/Cyclin T (Homo sapiens)
Test: CDK9/Cyclin T kinase assay (Nanosyn, Caliper microfluidic)
Format: biochemical
Conditions: 12-point dose-response, ATP at Km (10 μM), 17 hr; Table 5
Give IC50 for every item shown.
One number for each entry, in nM.

// known answers, use as guide
>>> observed_value("C[C@H]1CC[C@H](Nc2ncc3cc4n(c3n2)C2(CCCCC2)CN=C4)CC1")
600
>>> observed_value("N[C@H]1CC[C@H](Nc2ncc3cc4n(c3n2)C2(CCCCC2)CNC4=O)CC1")
2.2
>>> observed_value("O=C1NCC2(CCCCC2)n2c1cc1cnc(NC(=O)[C@H]3CCNC3)nc12")
35

// moving on: another record for IC50
Lookup: Return reported IC50; argument: O=C1NCC2(CCCCC2)n2c1cc1cnc(N[C@H]3CC[C@H](N4CCOCC4)CC3)nc12
Found: 6.2

* * *

Target: CDK5/p35 (Homo sapiens)
Sequence (Q00535 whole entry): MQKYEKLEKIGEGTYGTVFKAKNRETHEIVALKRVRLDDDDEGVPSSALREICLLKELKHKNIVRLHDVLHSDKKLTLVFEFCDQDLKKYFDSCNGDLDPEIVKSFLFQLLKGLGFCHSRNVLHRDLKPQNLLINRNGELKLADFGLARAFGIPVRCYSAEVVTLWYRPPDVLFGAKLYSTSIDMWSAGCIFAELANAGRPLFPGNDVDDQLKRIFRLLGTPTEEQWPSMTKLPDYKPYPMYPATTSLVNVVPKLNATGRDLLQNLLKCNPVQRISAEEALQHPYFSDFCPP
Sequence (Q15078 whole entry partner): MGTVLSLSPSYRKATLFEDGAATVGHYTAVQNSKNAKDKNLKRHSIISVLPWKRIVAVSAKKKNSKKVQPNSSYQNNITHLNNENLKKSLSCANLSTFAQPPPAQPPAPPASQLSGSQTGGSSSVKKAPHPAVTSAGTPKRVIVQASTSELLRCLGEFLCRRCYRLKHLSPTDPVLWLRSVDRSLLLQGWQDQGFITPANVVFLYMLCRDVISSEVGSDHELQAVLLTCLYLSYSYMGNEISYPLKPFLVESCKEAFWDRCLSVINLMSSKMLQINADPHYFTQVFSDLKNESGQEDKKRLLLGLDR
Experiment: CDK5/p35 kinase assay (Nanosyn, Caliper microfluidic)
Conditions: 12-point dose-response, ATP at Km (20 μM), 3 hr
pIC50: −log10 of the molar value.
Threshold rule: pIC50 greater than or equal to 6 is Criterion met; below that, Criterion not met.

Before answering, review these 8 worked examples.
>>> label_value("O=C1NCC2(CCCCC2)n2c1cc1cnc(NC(=O)[C@@H]3CCCNC3)nc12 [Compound 11]")
"Criterion not met"
>>> label_value("O=C1NCC2(CCCCC2)n2c1cc1cnc(NC(=O)[C@H]3CNCCN3)nc12 [Compound 36]")
"Criterion not met"
>>> label_value("O=C1NCC2(CCCCC2)n2c1cc1cnc(N[C@@H]3C[C@@H](O)CNC3=O)nc12 [Compound 8]")
"Criterion not met"
>>> label_value("CS(=O)(=O)N[C@H]1CC[C@H](Nc2ncc3cc4n(c3n2)C2(CCCCC2)CNC4=O)CC1 [Compound 22]")
"Criterion met"
>>> label_value("O=C(C[C@@H]1CCCN1)Nc1ncc2cc3n(c2n1)C1(CCCCC1)CNC3=O [Compound 34]")
"Criterion not met"
>>> label_value("O=C1NCC2(CCCCC2)n2c1cc1cnc(NC(=O)[C@H]3CNCC[C@H]3c3ccccc3)nc12 [Compound 28]")
"Criterion not met"
>>> label_value("N[C@H]1CC[C@H](Nc2ncc3cc4n(c3n2)C2(CCCCC2)CNC4=O)CC1 [Compound 49]")
"Criterion met"
>>> label_value("O=C1NCC2(CCCCC2)n2c1cc1cnc(N[C@H]3Cc4ccccc4NC3=O)nc12 [Compound 27]")
"Criterion not met"

Kindly consider the entry below.
Lookup: Check this compound for pIC50 at or above 6: O=C1NCC2(CCCCC2)n2c1cc1cnc(N[C@@H]3CCCN[C@@H]3c3ccccc3)nc12 [Compound 9]
Found: Criterion not met

* * *

Molecular target: CDK3/Cyclin E (Homo sapiens)
Test: CDK3/Cyclin E kinase assay (Nanosyn, Caliper microfluidic)
Settings: 12-point dose-response, ATP at Km (400 μM), 3 hr
experimental_endpoint: pIC50
One number for each entry, as −log10 of the molar value.

// known answers, use as guide
>>> observed_value("O=C1NCC2(CCCCC2)n2c1cc1cnc(N[C@H]3CCCN[C@@H]3c3ccccc3)nc12")
4.80
>>> observed_value("C[C@H]1CC[C@@H](Nc2ncc3cc4n(c3n2)C2(CCCCC2)CN=C4)CC1")
6.07
>>> observed_value("CN(C)[C@H]1CC[C@H](Nc2ncc3cc4n(c3n2)C2(CCCCC2)CNC4=O)CC1")
6.62
>>> observed_value("NS(=O)(=O)c1cccc(Nc2ncc3cc4n(c3n2)C2(CCCCC2)CNC4=O)c1")
7.92

Quick request: pIC50 for each listed item, please.
1. O=C1NCC2(CCCCC2)n2c1cc1cnc(N[C@H]3CCCNC3=O)nc12
2. C[C@H]1CC[C@H](Nc2ncc3cc4n(c3n2)C2(CCCCC2)CN=C4)CC1
3. O=C1NCC2(CCCCC2)n2c1cc1cnc(N[C@@H]3CCCNC3)nc12

Found:
4.25
6.19
6.00

* * *

Target: CDK4/Cyclin D1 (Homo sapiens, UniProt P11802)
Sequence (P11802 whole entry): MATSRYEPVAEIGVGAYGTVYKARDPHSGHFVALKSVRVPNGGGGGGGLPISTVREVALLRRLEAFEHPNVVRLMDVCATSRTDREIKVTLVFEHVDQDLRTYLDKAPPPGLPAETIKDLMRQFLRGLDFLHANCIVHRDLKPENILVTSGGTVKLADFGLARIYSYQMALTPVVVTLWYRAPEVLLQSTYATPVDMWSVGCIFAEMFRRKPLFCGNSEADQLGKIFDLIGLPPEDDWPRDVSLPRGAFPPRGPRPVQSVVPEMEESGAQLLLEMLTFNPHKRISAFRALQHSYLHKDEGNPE
Sequence (P24385 whole entry partner): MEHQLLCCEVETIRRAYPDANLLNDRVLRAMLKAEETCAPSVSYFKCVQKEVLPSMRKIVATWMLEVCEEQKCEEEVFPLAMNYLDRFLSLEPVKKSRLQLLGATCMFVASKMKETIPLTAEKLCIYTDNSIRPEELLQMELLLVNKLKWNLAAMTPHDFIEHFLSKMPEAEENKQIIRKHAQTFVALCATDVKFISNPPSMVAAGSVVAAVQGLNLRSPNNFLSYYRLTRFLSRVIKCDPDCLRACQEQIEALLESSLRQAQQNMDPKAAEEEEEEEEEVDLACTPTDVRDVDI
Experiment: CDK4/Cyclin D1 kinase assay (Nanosyn, Caliper microfluidic)
Type: biochemical
Details: 12-point dose-response, ATP at Km (200 μM), 3 hr; Table 4
pIC50: −log10 of the molar value.
Threshold rule: pIC50 greater than or equal to 7 is true (1); below that, false (0).

>>> label_value("C1=NCC2(CCCCC2)n2c1cc1cnc(N[C@@H]3CCCNC3)nc12")
"false (0)"

Lookup: Check this molecule for pIC50 at or above 7: NS(=O)(=O)c1cccc(Nc2ncc3cc4n(c3n2)C2(CCCCC2)CNC4=O)c1
Found: true (1)

Lookup: Check this molecule for pIC50 at or above 7: C[C@H]1NCCC[C@H]1C(=O)Nc1ncc2cc3n(c2n1)C1(CCCCC1)CNC3=O
Found: false (0)

* * *

Biological target: CDK3/Cyclin E (Homo sapiens, UniProt Q00526)
Sequence (Q00526 whole entry): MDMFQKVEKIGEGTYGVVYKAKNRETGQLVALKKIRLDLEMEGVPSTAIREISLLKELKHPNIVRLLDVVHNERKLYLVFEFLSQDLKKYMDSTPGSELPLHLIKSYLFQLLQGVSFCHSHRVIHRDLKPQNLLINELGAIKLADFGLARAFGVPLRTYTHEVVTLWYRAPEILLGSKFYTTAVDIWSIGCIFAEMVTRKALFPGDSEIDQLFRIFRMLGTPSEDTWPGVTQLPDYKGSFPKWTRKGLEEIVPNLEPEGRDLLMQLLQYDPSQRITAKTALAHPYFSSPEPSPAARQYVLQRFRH
Sequence (P24864 whole entry partner): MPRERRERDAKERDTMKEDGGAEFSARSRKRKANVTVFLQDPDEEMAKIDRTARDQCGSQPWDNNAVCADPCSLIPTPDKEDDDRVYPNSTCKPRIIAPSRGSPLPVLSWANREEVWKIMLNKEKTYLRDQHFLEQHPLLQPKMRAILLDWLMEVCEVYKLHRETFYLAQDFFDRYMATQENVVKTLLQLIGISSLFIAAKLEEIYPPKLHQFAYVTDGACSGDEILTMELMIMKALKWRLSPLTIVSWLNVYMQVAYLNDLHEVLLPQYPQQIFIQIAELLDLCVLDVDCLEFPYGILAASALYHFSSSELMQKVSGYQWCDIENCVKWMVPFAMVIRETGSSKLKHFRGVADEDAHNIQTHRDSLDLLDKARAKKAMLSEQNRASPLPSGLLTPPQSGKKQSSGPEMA
Assay: CDK3/Cyclin E kinase assay (Nanosyn, Caliper microfluidic)
Format: biochemical
Conditions: 12-point dose-response, ATP at Km (400 μM), 3 hr
experimental_endpoint: IC50 (nM)
Answers are plain numbers, in nM.

// known answers, use as guide
>>> observed_value("S=C1NCC2(CCCCC2)n2c1cc1cnc(N[C@H]3CCCNC3)nc12")
17
>>> observed_value("O=C(C[C@@H]1CCCN1)Nc1ncc2cc3n(c2n1)C1(CCCCC1)CNC3=O")
33000
>>> observed_value("O=C(C[C@H]1CCCN1)Nc1ncc2cc3n(c2n1)C1(CCCCC1)CNC3=O")
38000

Quick request: IC50 for each listed item, please.
1. N[C@H]1CC[C@H](Nc2ncc3cc4n(c3n2)C2(CCCCC2)CNC4=O)CC1
2. O=C1NCC2(CCCCC2)n2c1cc1cnc(N[C@H]3CC[C@H](N4CCCCC4)CC3)nc12
3. C[C@H]1NCCC[C@H]1C(=O)Nc1ncc2cc3n(c2n1)C1(CCCCC1)CNC3=O
4. CN1CCN([C@H]2CC[C@@H](Nc3ncc4cc5n(c4n3)C3(CCCCC3)CNC5=S)CC2)CC1
5. O=C1NCC2(CCCCC2)n2c1cc1cnc(NC(=O)[C@H]3CNCCO3)nc12
6. O=C1NCC2(CCCCC2)n2c1cc1cnc(NC(=O)[C@@H]3CCCNC3)nc12
7. O=C1NCC2(CCCCC2)n2c1cc1cnc(N[C@@H]3C[C@@H](O)CNC3=O)nc12
8. C1=NCC2(CCCCC2)n2c1cc1cnc(NC3CCOCC3)nc12

Found:
[110, 520, 6900, 420, 54000, 7200, 18000, 24]

Quick request: IC50 for each listed item, please.
1. O=C1NCC2(CCCCC2)n2c1cc1cnc(N[C@H]3CC[C@H](NCc4ccccc4F)CC3)nc12
2. O=C1NCC2(CCCCC2)n2c1cc1cnc(N[C@H]3CC[C@H](N4CCOCC4)CC3)nc12
3. S=C1NCC2(CCCCC2)n2c1cc1cnc(N[C@@H]3CCCNC3)nc12
4. C1=NCC2(CCCCC2)n2c1cc1cnc(N[C@@H]3CCCNC3)nc12

Found:
1. 400
2. 470
3. 210
4. 610
